- target system: CDK7 protein (Homo sapiens, UniProt P50613)
- Construct: To verify endogenous CDK7 protein degradation; endogenous in cells; host or cells: A2780 (ECACC 93112519)
- Sequence (P50613 whole entry): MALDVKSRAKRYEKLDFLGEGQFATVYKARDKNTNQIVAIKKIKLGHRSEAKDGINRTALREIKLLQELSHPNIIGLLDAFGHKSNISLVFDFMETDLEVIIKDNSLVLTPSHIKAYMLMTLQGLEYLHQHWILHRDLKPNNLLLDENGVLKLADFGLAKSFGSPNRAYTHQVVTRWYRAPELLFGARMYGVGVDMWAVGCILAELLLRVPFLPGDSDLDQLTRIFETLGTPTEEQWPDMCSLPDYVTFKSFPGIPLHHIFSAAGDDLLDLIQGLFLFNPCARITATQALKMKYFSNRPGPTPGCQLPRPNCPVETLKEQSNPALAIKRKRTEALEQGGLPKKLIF
- method summary: Western blot assay for CDK7 protein degradation in A2780 cells;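 note: A is DC50 up to 100 nM B is 100 to 1000 nM C is above 1000 nM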
- Type: cell-based
- condition details: 24 hours, read-out: Compound concentration that caused 50% CDK7 protein degradation in A2780 cells (DC50)

record smiles	DC50
Cc1cc([C@H](C(=O)N2C[C@H](O)C[C@H]2C(=O)NCc2ccc(-c3scnc3C)cc2OCCOCCOCCNc2ccc3c(-c4ccccc4CNc4nc(O[C@@H]5CCCNC5)nc5c(C(C)C)cnn45)nccc3c2)C(C)C)on1	≤ 100 nM
Cc1ncsc1-c1ccc(CNC(=O)[C@@H]2C[C@@H](O)CN2C(=O)[C@@H](NC(=O)C2(F)CC2)C(C)(C)C)c(OCCCCCCCCNc2ccc3c(-c4ccccc4CNc4nc(O[C@@H]5CCCNC5)nc5c(C(C)C)cnn45)nccc3c2)c1	100 to 1000 nM
CNCC(=O)N[C@H](C(=O)N1C[C@@H](Oc2cccc(OCCOCCOCCNc3ccc4c(-c5ccccc5CNc5nc(O[C@@H]6CCCNC6)nc6c(C(C)C)cnn56)nccc4c3)c2)C[C@H]1C(=O)N[C@@H]1CCCc2ccccc21)C1CCCCC1	> 1000 nM
Cc1ncsc1-c1ccc(CNC(=O)[C@@H]2C[C@@H](O)CN2C(=O)[C@@H](NC(=O)C2(F)CC2)C(C)(C)C)c(OCCOCCNc2ccc3c(-c4ccccc4CNc4nc(O[C@@H]5CCCNC5)nc5c(C(C)C)cnn45)nccc3c2)c1	≤ 100 nM
